# Method Summary: chemical genetic growth profiling, strain panel (AID 1159580);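 also: tested at 20 µM; growth read once vehicle control cultures reached saturation at 30 °C; 1 = growth at the plate median or of vehicle wells; lower values mean less growth of the strain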
# Details: S. cerevisiae deletion strains, growth OD, locus YDR162C, strain NBP2, stronger effect = lower value
The whole screen tested about 5,500 compounds, of which about 2,000 (36%) were called active. Inconclusive results (about 18%) are left out. This is one part of the list.
Param label: returns True when normalized growth < 1, returns False otherwise, including exact equality.

Chem Smiles	Group Label
CN1CC(CO)=C[C@@H]2c3cccc4[nH]cc(c34)C[C@H]21	True
COc1cc(CNC(=O)CCCC/C=C/C(C)C)ccc1O	False

====

normalized growth values for the compounds below.
# Method Summary: chemical genetic growth profiling, strain panel (AID 1159580);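 also: tested at 20 µM; growth read once vehicle control cultures reached saturation at 30 °C; 1 = growth at the plate median or of vehicle wells; lower values mean less growth of the strain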
# Details: S. cerevisiae deletion strains, growth OD, locus YER015W, strain faa2, stronger effect = lower value
In all, about 5,500 compounds went through this assay and about 2,000 (36%) were called active. Not shown: some 18% with an inconclusive outcome. This is one part of the list.
Observed Property: normalized growth

> print(dat)
                                    compound  observed.property  endpoint.value
 1  COc1c(N2CCNC(C)C2)c(F)cc2c(=O)c(C(=O)O)cn(C3CC3)c12 (stereo unspecified)  normalized growth           0.968
 2  CCN1CCCC(OC(=O)C(c2ccccc2)c2ccccc2)C1 (stereo unspecified)  normalized growth           0.974
 3                 O=C(O)c1cc2cc(F)ccc2[nH]1  normalized growth           0.981
 4  CCn1cc(C(=O)O)c(=O)c2cc(F)c(N3CCNC(C)C3)c(F)c21 (stereo unspecified)  normalized growth           0.988
 5  CC1COc2c(N3CCN(C)CC3)c(F)cc3c(=O)c(C(=O)O)cn1c23 (stereo unspecified)  normalized growth            0.99
 6  COC(=O)C1=COC(OC2OC(CO)C(O)C(O)C2O)C2C(C)CC(=O)C12 (stereo unspecified)  normalized growth            1.04
 7  CCn1cc(C(=O)O)c(=O)c2cc(F)c(N3CCNCC3)nc21  normalized growth           0.982
 8    Clc1ccc(C(c2ccc(Cl)cc2)C(Cl)(Cl)Cl)cc1  normalized growth            1.01
 9  CO/N=C1/CN(c2nc3c(cc2F)c(=O)c(C(=O)O)cn3C2CC2)CC1CN (stereo unspecified)  normalized growth            1.01
10  COc1ccc(OC)c(C(O)CNC(=O)CN)c1 (stereo unspecified)  normalized growth            1.02
11  COc1ccc(C(CN(C)C)C2(O)CCCCC2)cc1 (stereo unspecified)  normalized growth            1.01

====

normalized growth values for the compounds below.
# Method Summary: chemical genetic growth profiling, strain panel (AID 1159580);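 also: tested at 20 µM; growth read once vehicle control cultures reached saturation at 30 °C; 1 = growth at the plate median or of vehicle wells; lower values mean less growth of the strain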
# Details: S. cerevisiae deletion strains, growth OD, locus YBR279W, strain paf1, stronger effect = lower value
Screen size: about 5,500 compounds; about 2,000 (36%) were called active. About 18% were inconclusive and are not listed. This is one part of the list.
Observed Property: normalized growth

> print(dat)
                                    compound  observed.property  endpoint.value
 1  CC1COc2c(N3CCN(C)CC3)c(F)cc3c(=O)c(C(=O)O)cn1c23 (stereo not given)  normalized growth           0.992
 2     COc1ccc(C(=O)CC(=O)O)c2c1C=CC(C)(C)O2  normalized growth            1.01
 3  COc1ccc2c(c1)OC/C(=C\c1ccc(OC)c(O)c1)C2=O  normalized growth           0.912
 4            CCCCCCCCC(=O)NCc1ccc(O)c(OC)c1  normalized growth            1.01
 5  COc1c(N2CCNC(C)C2)c(F)cc2c(=O)c(C(=O)O)cn(C3CC3)c12 (stereo not given)  normalized growth           0.986
 6  C[C@H]1COc2c(N3CCN(C)CC3)c(F)cc3c(=O)c(C(=O)O)cn1c23  normalized growth            1.02
 7                             NCCS(=O)(=O)O  normalized growth           0.985
 8                         C#CCN(C)Cc1ccccc1  normalized growth           0.977
 9  O=C(O[C@@H]1Cc2c(O)cc(O)cc2O[C@@H]1c1cc(O)c(O)c(O)c1)c1cc(O)c(O)c(O)c1  normalized growth           0.821
10                     C#CCCCCCCCCCCCc1ccco1  normalized growth               1
11       O=C(/C=C/c1ccc(O)c(O)c1)OCCc1ccccc1  normalized growth           0.848
12                 O=C(O)/C=C/c1ccc(O)c(O)c1  normalized growth           0.995
13                      CCCCCCCCCCCCCc1ccco1  normalized growth           0.947
14                            NCCCS(=O)(=O)O  normalized growth            1.01
15  COc1ccc2c(c1)OC1(O)COc3cc(OC)c(OC)cc3C1=C2 (stereo not given)  normalized growth           0.984
16    COc1ccc(C(c2ccc(OC)cc2)C(Cl)(Cl)Cl)cc1  normalized growth            1.02
17  CCn1cc(C(=O)O)c(=O)c2cc(F)c(N3CCNC(C)C3)c(F)c21 (stereo not given)  normalized growth           0.975
18  CC[C@@]1(O)C[C@H](O[C@H]2C[C@H](N(C)C)[C@H](O)[C@H](C)O2)c2c(cc3c(c2O)C(=O)c2c(O)cccc2C3=O)[C@H]1C(=O)OC  normalized growth            0.94
19  Oc1cc(O)c2c(c1)O[C@H](c1ccc(O)c(O)c1)[C@H](O)C2  normalized growth            1.01
20  O=C(Oc1cc(OC(=O)c2ccccc2)c2c(c1)O[C@H](c1ccc(OC(=O)c3ccccc3)c(OC(=O)c3ccccc3)c1)[C@@H](OC(=O)c1ccccc1)C2)c1ccccc1  normalized growth               1
21  O=S(=O)(O)c1cc(N=C=S)ccc1/C=C/c1ccc(N=C=S)cc1S(=O)(=O)O  normalized growth            1.01
22            O=C1NCC2(CCN(CCc3ccccc3)CC2)O1  normalized growth            1.01
23  COC(=O)C1=COC(OC2OC(CO)C(O)C(O)C2O)C2C(C)CC(=O)C12 (stereo not given)  normalized growth            1.03
24  Oc1cc(O)c2c(c1)O[C@H](c1ccc(O)c(O)c1)[C@@H](O)C2  normalized growth            1.01
25  CCN1CCCC(OC(=O)C(c2ccccc2)c2ccccc2)C1 (stereo not given)  normalized growth           0.998
26  Clc1ccc(C(OCCN2CCCCC2)c2ccccc2)cc1 (stereo not given)  normalized growth            1.02
27  CN(C)CCCC1(c2ccc(F)cc2)OCc2cc(C#N)ccc21 (stereo not given)  normalized growth           0.979
28  Cc1ccccc1C(OCCN(C)C)c1ccccc1 (stereo not given)  normalized growth           0.993
29  O=C1CCC(N2C(=O)c3ccccc3C2=O)C(=O)N1 (stereo not given)  normalized growth            1.03
30  Cn1c(=O)c2c(ncn2CC(O)CO)n(C)c1=O (stereo not given)  normalized growth           0.972
31  COc1ccc2c(c1)OC/C(=C/c1ccc(OC)c(OC)c1)C2=O  normalized growth           0.946
32            C[n+]1c2cc(N)ccc2cc2ccc(N)cc21  normalized growth           0.701
33  CC(=O)Oc1cc(OC(C)=O)c2c(c1)O[C@H](c1ccc(OC(C)=O)c(OC(C)=O)c1)[C@H](OC(C)=O)C2  normalized growth           0.985
34           CN1CCC(OC(c2ccccc2)c2ccccc2)CC1  normalized growth            1.01
35                     C=CCCCCCCCCCCCc1ccco1  normalized growth           0.873
36  CN(C)CCOC(c1ccc(Cl)cc1)c1ccccn1 (stereo not given)  normalized growth            1.02
37           Cc1ncc(CNC(=O)N(CCCl)N=O)c(N)n1  normalized growth               1
38  CC[C@@]1(O)C[C@H](O[C@H]2C[C@H](N(C)C)[C@H](O)[C@H](C)O2)c2c(cc3c(c2O)C(=O)c2c(O)ccc(O)c2C3=O)[C@H]1C(=O)OC  normalized growth           0.901
39  O=C(Oc1cc(O)cc2c1C[C@@H](OC(=O)c1cc(O)c(O)c(O)c1)[C@@H](c1cc(O)c(O)c(O)c1)O2)c1cc(O)c(O)c(O)c1  normalized growth            1.01
40  OCC(O)CN1CCN(c2ccccc2)CC1 (stereo not given)  normalized growth           0.974
41                 O=C(O)c1cc2cc(F)ccc2[nH]1  normalized growth           0.976
42       COC(=O)c1cc(=O)c(O)c2c(O)c(O)ccc2c1  normalized growth               1
43                             O=S(=O)(O)CCS  normalized growth           0.986
44  CC[C@@]1(O)C[C@H](O)c2c(cc3c(c2O)C(=O)c2c(O)ccc(O)c2C3=O)[C@H]1C(=O)OC  normalized growth           0.964
45    Clc1ccc(C(c2ccc(Cl)cc2)C(Cl)(Cl)Cl)cc1  normalized growth            1.01
